What follows is a record of IC50 for Dual specificity protein phosphatase 1 (Homo sapiens).
property: IC50

O=C(O)c1cc(C(F)(F)F)nc2c(C(F)(F)F)cccc12 : > 50 µM
Cn1c(=O)c(C(=O)COC(=O)c2cc(-c3ccccc3)nc3ccccc23)c(N)n(Cc2ccccc2)c1=O : 50 µM
Cn1c(=O)c(C(=O)COC(=O)c2cc(C(F)(F)F)nc3c(C(F)(F)F)cccc23)c(N)n(CC2CC2)c1=O : > 50 µM
Cn1c(=O)c(C(=O)COC(=O)c2cc(C3CC3)nc3ccccc23)c(N)n(Cc2ccccc2)c1=O : > 50 µM
CC(C)Cn1c(N)c(C(=O)COC(=O)c2cc(-c3ccco3)nc3ccccc23)c(=O)n(C)c1=O : 50 µM
CC(C)Cn1c(N)c(C(=O)COC(=O)c2cc(C(F)(F)F)nc3c(C(F)(F)F)cccc23)c(=O)n(C)c1=O : > 50 µM
NC(=O)NCC1CC1 : > 50 µM
CC(C)Cn1c(N)c(C(=O)CCl)c(=O)n(C)c1=O : > 50 µM
Cn1c(N)c(C(=O)CCl)c(=O)n(Cc2ccccc2)c1=O : > 50 µM
O=C(O)c1cc(C2CC2)nc2ccccc12 : > 50 µM
CN(C)C=Nc1cc(=O)[nH]c(=O)n1CC1CC1 : > 50 µM
Cn1c(N)c(C(=O)COC(=O)c2cc(-c3ccco3)nc3ccccc23)c(=O)n(C)c1=O : 20.6 µM
O=C(O)c1cc(C(F)(F)F)nc2ccccc12 : > 50 µM
CN(C)C=Nc1cc(=O)[nH]c(=O)n1C : > 50 µM
Cn1c(N)c(C(=O)COC(=O)c2cc(-c3ccccc3)nc3ccccc23)c(=O)n(Cc2ccccc2)c1=O : > 50 µM
CC(C)Cn1c(N)c(C(=O)COC(=O)c2cc(C3CC3)nc3ccccc23)c(=O)n(C)c1=O : > 50 µM
CN(C)C=Nc1cc(=O)[nH]c(=O)n1Cc1ccccc1 : > 50 µM
Oc1cc(C(F)(F)F)nc2c(C(F)(F)F)cccc12 : > 50 µM
Cn1c(N)c(C(=O)COC(=O)c2cc(-c3ccccc3)nc3ccccc23)c(=O)n(C)c1=O : > 50 µM
